These data points were gathered from patent US20120316071A1.

- TARGET OR SYSTEM: T1, Recombinant Human DLL4 (R&D Systems Cat#1506-D4/CF) (human, UniProt Q9NR61 27-524)
- T1 construct: Bought recombinant protein; also called delta-like protein 4; Delta-like 4
- ASSAY: ECL (Meso Scale Discovery) multispot binding assay, DLL4 immobilised, Fab at 100 nM
Documented ECL signal across a set of binders
Note: the reply should be a number with no unit written.

Solved entries (count: 4):
[
  {
    "BINDER": "Fab VH5-51_IGHD5-18*01>3_IGHJ4*01 G100K/G104T (H:KT) & V3-4_IGLJ1*01 T31A (Fab, V domains shown, Fab expressed in E. coli; Plasmid A adds CH1 with His6 and Flag tags to the heavy chain; Plasmid E adds lambda CL to the light chain; also called G100K/G104T & T31A) VH: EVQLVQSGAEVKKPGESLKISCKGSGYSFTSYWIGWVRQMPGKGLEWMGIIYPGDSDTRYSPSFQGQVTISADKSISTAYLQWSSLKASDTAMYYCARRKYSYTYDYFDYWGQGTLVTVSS VL: QTVVTQEPSFSVSPGGTVTLTCGLSSGSVSASYYPSWYQQTPGQAPRTLIYSTNTRSSGVPDRFSGSILGNKAALTITGAQADDESDYYCVLYMGSGISYVFGTGTKVTVL",
    "VALUE REPORTED": 13500
  },
  {
    "BINDER": "Fab VH5-51_IGHD5-18*01>3_IGHJ4*01 G100K/G104T (H:KT) & V3-4_IGLJ1*01 Y33A (Fab, V domains shown, Fab expressed in E. coli; Plasmid A adds CH1 with His6 and Flag tags to the heavy chain; Plasmid E adds lambda CL to the light chain; also called G100K/G104T & Y33A) VH: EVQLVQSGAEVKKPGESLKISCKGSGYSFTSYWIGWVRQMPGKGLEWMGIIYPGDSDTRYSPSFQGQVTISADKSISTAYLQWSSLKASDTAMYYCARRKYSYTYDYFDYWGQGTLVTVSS VL: QTVVTQEPSFSVSPGGTVTLTCGLSSGSVSTSAYPSWYQQTPGQAPRTLIYSTNTRSSGVPDRFSGSILGNKAALTITGAQADDESDYYCVLYMGSGISYVFGTGTKVTVL",
    "VALUE REPORTED": 7700
  },
  {
    "BINDER": "Fab VH5-51_IGHD5-18*01>3_IGHJ4*01 G100K/G104T (H:KT) & V3-4_IGLJ1*01 S30A (Fab, V domains shown, Fab expressed in E. coli; Plasmid A adds CH1 with His6 and Flag tags to the heavy chain; Plasmid E adds lambda CL to the light chain; also called G100K/G104T & S30A) VH: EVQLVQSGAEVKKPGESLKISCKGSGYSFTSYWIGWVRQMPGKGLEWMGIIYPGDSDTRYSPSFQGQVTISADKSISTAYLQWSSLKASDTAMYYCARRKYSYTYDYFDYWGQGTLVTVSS VL: QTVVTQEPSFSVSPGGTVTLTCGLSSGSVATSYYPSWYQQTPGQAPRTLIYSTNTRSSGVPDRFSGSILGNKAALTITGAQADDESDYYCVLYMGSGISYVFGTGTKVTVL",
    "VALUE REPORTED": 10300
  },
  {
    "BINDER": "Fab VH5-51_IGHD5-18*01>3_IGHJ4*01 G100K/G104T (H:KT) & V3-4_IGLJ1*01 V29A (Fab, V domains shown, Fab expressed in E. coli; Plasmid A adds CH1 with His6 and Flag tags to the heavy chain; Plasmid E adds lambda CL to the light chain; also called G100K/G104T & V29A) VH: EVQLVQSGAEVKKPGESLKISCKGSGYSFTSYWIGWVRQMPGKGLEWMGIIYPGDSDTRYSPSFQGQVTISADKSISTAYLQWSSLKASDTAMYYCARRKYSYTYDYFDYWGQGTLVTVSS VL: QTVVTQEPSFSVSPGGTVTLTCGLSSGSASTSYYPSWYQQTPGQAPRTLIYSTNTRSSGVPDRFSGSILGNKAALTITGAQADDESDYYCVLYMGSGISYVFGTGTKVTVL",
    "VALUE REPORTED": 9320
  }
]

Could you now consider this next binder?
For this binder ( Fab VH5-51_IGHD5-18*01>3_IGHJ4*01 G100K/G104T (H:KT) & V3-4_IGLJ1*01 Y34A (Fab, V domains shown, Fab expressed in E. coli; Plasmid A adds CH1 with His6 and Flag tags to the heavy chain; Plasmid E adds lambda CL to the light chain; also called G100K/G104T & Y34A) VH: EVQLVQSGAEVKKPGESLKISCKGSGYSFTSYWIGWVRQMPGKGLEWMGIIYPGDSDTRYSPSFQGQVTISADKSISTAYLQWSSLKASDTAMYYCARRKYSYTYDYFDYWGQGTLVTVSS VL: QTVVTQEPSFSVSPGGTVTLTCGLSSGSVSTSYAPSWYQQTPGQAPRTLIYSTNTRSSGVPDRFSGSILGNKAALTITGAQADDESDYYCVLYMGSGISYVFGTGTKVTVL ), measured ECL signal is 2200
